Experiment: Functional assay to measure dose dependent changes in cell viability from drug treatment in Vero E6 miRFP670 cells (cotreated with P-gp inhibitor, CP100356) that are infected with Dengue virus type 2 New Guinea C. […] Cytotoxicity is reported via via analysis of DAPI count using high-content imager. The assay has been performed by KU Leuven.
Format: toxicity, cell-based, Vero C1008
Conditions: chlorocebus sabaeus, with CP100356 (P-gp inhibitor, concentration not stated); p-gp concentration 500 nM
Entries and their CC50
Kindly answer with a numeric value in µM, unit omitted.

NCCc1cccc(NC(=O)[C@H]2[C@H]3CCCCC[C@H]3[C@H]2NC(=O)OCc2ccccc2)c1; 7.53

Form: compound = `CC(C)OC(=O)Nc1cc(Cl)cc(C(=O)Nc2cccc(CN)c2)c1` ; CC50 = 4.99

Form: compound = `NCc1ccc(-c2ncc(OCC3CCNCC3)nc2-c2ccc(-c3ccoc3)cc2)cc1` ; CC50 = 1.7

Form: compound = `O=C(O)c1cc(Oc2ccc(F)cc2)c(F)cc1NS(=O)(=O)c1ccc(Oc2ccccc2Cl)cc1` ; CC50 = 5.31

Form: compound = `COc1cc(Br)cc(C(=O)Nc2ccc3c(c2)CNC3)c1` ; CC50 = 27.5

Form: compound = `Clc1cc(CNc2ccc3c(c2)CNC3)c2cn[nH]c2c1` ; CC50 = 21.4

Form: compound = `C=CC[C@H](Nc1cccc(-c2nn[nH]n2)c1)c1cc(Cl)cc(NC(=O)OCc2ccccc2)c1` ; CC50 = 6.9

Form: compound = `NCc1cccc(CNC(=O)[C@@H](NC(=O)OCc2ccccc2)c2ccc(OCc3ccccc3)cc2)c1` ; CC50 = 1.9

Form: compound = `O=C(Nc1ccc2c(c1)CNC2)c1cc(Br)cc2[nH]c(=O)[nH]c12` ; CC50 = 4.79
